# key: entry, value: IC50
Target: p110β/p85α (Homo sapiens, UniProt P42338)
Sequence (P42338 whole entry, looked up): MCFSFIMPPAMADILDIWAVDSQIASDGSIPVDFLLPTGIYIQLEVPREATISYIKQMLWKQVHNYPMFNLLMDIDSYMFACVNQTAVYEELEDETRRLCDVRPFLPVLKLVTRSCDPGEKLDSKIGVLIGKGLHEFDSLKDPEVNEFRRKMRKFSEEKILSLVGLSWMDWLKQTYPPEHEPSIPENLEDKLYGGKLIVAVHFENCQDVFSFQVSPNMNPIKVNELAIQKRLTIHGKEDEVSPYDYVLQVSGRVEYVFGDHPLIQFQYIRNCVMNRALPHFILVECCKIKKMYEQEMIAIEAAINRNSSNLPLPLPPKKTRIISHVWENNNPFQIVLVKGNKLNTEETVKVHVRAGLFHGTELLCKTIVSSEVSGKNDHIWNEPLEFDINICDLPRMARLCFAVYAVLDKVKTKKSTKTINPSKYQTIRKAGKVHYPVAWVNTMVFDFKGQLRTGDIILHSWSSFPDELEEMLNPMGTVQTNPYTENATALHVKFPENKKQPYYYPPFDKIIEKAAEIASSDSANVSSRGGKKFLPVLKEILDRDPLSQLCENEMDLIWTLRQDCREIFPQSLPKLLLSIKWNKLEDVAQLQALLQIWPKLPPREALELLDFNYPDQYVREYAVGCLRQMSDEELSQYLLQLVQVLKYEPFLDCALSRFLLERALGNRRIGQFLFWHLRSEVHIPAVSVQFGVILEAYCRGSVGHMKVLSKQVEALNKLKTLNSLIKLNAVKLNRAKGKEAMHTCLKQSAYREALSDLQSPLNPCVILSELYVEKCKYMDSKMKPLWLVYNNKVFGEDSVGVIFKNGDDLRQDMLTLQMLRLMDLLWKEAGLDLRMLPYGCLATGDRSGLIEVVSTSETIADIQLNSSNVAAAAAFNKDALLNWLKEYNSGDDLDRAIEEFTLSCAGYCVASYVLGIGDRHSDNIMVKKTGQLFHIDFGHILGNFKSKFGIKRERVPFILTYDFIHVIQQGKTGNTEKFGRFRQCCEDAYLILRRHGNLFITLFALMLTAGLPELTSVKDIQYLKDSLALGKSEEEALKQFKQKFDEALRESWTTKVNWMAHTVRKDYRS
Test: PI3K β inhibition assay (TLC lipid kinase or HTRF)
Assay type: biochemical
Settings: read-out: PI3K β IC50

The cases that follow already have their IC50 on record.
• Nc1ncnc2c1c(-c1cc(O)cc(F)c1)nn2Cc1cc2ccccc2nc1N1CCCC1 = 100 to 1000 nM
• Nc1ncnc2c1c(/C=C1/SC(=O)NC1=O)nn2Cc1cc2ccccc2nc1-c1ccccc1F = > 1000 nM
• Nc1ncnc2c1c(-c1cn[nH]c1)nn2Cc1cc2ccccc2nc1-c1ccccc1 = > 1000 nM

Turning now to a further compound:
Ask: Need IC50 of Nc1ncc2cc(-c3nn(Cc4cc5ccccc5nc4-c4ccccc4)c4ncnc(N)c34)ccc2n1 , thanks.
Result: > 1000 nM

Recorded values, source patent US9790228B2.
